system: basal cells and pyramidal cells of the airway epithelium; assay: miRNA expression in sorted basal cells versus pyramidal cells (ciliated + secretory), HTS and Agilent chips; set-up: species or system human; details: pyramidal cells (ciliated + secretory)
Please enter Fulfilled where Intensity of the level of expression in log2 in pyramidal cells (323(−)) is greater than or equal to 7 log2, and Not fulfilled where it is lower.

{"Substance": "hsa-miR-34a: human miRNA, SEQ ID No. 38 (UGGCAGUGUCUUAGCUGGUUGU; expressed or natural sequence; listed as Homo sapiens)", "Category label": "Fulfilled"}
{"Substance": "hsa-miR-449a: human miRNA, SEQ ID No. 46 (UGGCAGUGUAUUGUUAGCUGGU; expressed or natural sequence; listed as Homo sapiens)", "Category label": "Fulfilled"}
{"Substance": "hsa-miR-374a: human miRNA, SEQ ID No. 42 (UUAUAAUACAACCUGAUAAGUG; expressed or natural sequence; listed as Homo sapiens)", "Category label": "Not fulfilled"}
{"Substance": "hsa-miR-200b: human miRNA, SEQ ID No. 17 (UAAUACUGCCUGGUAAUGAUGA; expressed or natural sequence; listed as Homo sapiens)", "Category label": "Fulfilled"}

====

tested on: basal cells and pyramidal cells of the airway epithelium; experiment: miRNA expression in sorted basal cells versus pyramidal cells (ciliated + secretory), HTS and Agilent chips; parameters: species or system human; conditions: basal cells
Recorded measurements of Intensity of the level of expression in log2 in basal cells (323(+)), one per entry
Quantity name: Intensity of the level of expression in log2 in basal cells (323(+))

{"Substance": "hsa-miR-29c: human miRNA, SEQ ID No. 32 (UAGCACCAUUUGAAAUCGGUUA; expressed or natural sequence; listed as Homo sapiens)", "Obs value": "11.06 log2"}
{"Substance": "hsa-miR-574-3p: human miRNA, SEQ ID No. 48 (CACGCUCAUGCACACACCCACA; expressed or natural sequence; listed as Homo sapiens)", "Obs value": "3.53 log2"}
{"Substance": "hsa-miR-30c: human miRNA, SEQ ID No. 34 (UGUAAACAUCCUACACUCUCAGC; expressed or natural sequence; listed as Homo sapiens)", "Obs value": "6.92 log2"}
{"Substance": "hsa-miR-106b: human miRNA, SEQ ID No. 2 (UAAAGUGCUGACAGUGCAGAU; expressed or natural sequence; listed as Homo sapiens)", "Obs value": "7.22 log2"}
{"Substance": "hsa-miR-205: human miRNA, SEQ ID No. 20 (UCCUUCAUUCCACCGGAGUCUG; expressed or natural sequence; listed as Homo sapiens)", "Obs value": "12.44 log2"}
{"Substance": "hsa-miR-25: human miRNA, SEQ ID No. 27 (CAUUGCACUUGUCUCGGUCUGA; expressed or natural sequence; listed as Homo sapiens)", "Obs value": "5.40 log2"}
{"Substance": "hsa-miR-26a: human miRNA, SEQ ID No. 28 (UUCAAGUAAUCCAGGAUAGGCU; expressed or natural sequence; listed as Homo sapiens)", "Obs value": "9.92 log2"}
{"Substance": "hsa-miR-181a: human miRNA, SEQ ID No. 12 (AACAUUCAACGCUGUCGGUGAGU; expressed or natural sequence; listed as Homo sapiens)", "Obs value": "6.88 log2"}
{"Substance": "hsa-miR-34a: human miRNA, SEQ ID No. 38 (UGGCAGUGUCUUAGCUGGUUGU; expressed or natural sequence; listed as Homo sapiens)", "Obs value": "6.72 log2"}
{"Substance": "hsa-miR-374a: human miRNA, SEQ ID No. 42 (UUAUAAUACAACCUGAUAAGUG; expressed or natural sequence; listed as Homo sapiens)", "Obs value": "4.26 log2"}
{"Substance": "hsa-miR-378: human miRNA, SEQ ID No. 43 (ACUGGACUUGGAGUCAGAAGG; expressed or natural sequence; listed as Homo sapiens)", "Obs value": "4.11 log2"}

====

system: human airway epithelial cells (HAECs); assay: High-throughput sequencing (HTS) of miRNAs at four stages of differentiation of HAECs; conditions: HTS, ALI-D0
Please enter yes where Abundance (%), D0 is greater than or equal to 0.5%, and no where it is lower.

{"Substance": "hsa-miR-17: human miRNA, SEQ ID No. 11 (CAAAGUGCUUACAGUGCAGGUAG; expressed or natural sequence; listed as Homo sapiens)", "Category label": "yes"}
{"Substance": "hsa-miR-191: human miRNA, SEQ ID No. 13 (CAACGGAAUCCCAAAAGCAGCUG; expressed or natural sequence; listed as Homo sapiens)", "Category label": "yes"}
{"Substance": "hsa-miR-205: human miRNA, SEQ ID No. 20 (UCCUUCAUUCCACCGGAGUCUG; expressed or natural sequence; listed as Homo sapiens)", "Category label": "yes"}
{"Substance": "hsa-miR-449a: human miRNA, SEQ ID No. 46 (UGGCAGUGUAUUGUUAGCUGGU; expressed or natural sequence; listed as Homo sapiens)", "Category label": "no"}
{"Substance": "hsa-miR-130a: human miRNA, SEQ ID No. 4 (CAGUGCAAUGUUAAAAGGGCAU; expressed or natural sequence; listed as Homo sapiens)", "Category label": "yes"}
{"Substance": "hsa-miR-125a-5p: human miRNA, SEQ ID No. 3 (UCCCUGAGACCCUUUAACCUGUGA; expressed or natural sequence; listed as Homo sapiens)", "Category label": "yes"}
{"Substance": "hsa-miR-92b: human miRNA, SEQ ID No. 49 (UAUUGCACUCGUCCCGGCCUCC; expressed or natural sequence; listed as Homo sapiens)", "Category label": "no"}
{"Substance": "hsa-miR-193b: human miRNA, SEQ ID No. 14 (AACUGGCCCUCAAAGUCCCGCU; expressed or natural sequence; listed as Homo sapiens)", "Category label": "yes"}
{"Substance": "hsa-miR-1975: human miRNA, SEQ ID No. 15 (CCCCCACAACCGCGCUUGACUAGCU; expressed or natural sequence; listed as Homo sapiens)", "Category label": "no"}
{"Substance": "hsa-miR-449c: human miRNA, SEQ ID No. 201 (UAGGCAGUGUAUUGCUAGCGGCUGU; expressed or natural sequence; listed as Homo sapiens)", "Category label": "no"}
{"Substance": "hsa-miR-203: human miRNA, SEQ ID No. 19 (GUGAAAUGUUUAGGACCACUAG; expressed or natural sequence; listed as Homo sapiens)", "Category label": "yes"}

====

test system: human airway epithelial cells (HAECs); assay: High-throughput sequencing (HTS) of miRNAs at four stages of differentiation of HAECs; conditions: HTS, ALI-D7
Please enter class 1 where Abundance (%), D7 is greater than or equal to 1%, and class 0 where it is lower.

{"Substance": "hsa-miR-130a: human miRNA, SEQ ID No. 4 (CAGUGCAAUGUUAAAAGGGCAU; expressed or natural sequence; listed as Homo sapiens)", "Category label": "class 1"}
{"Substance": "hsa-miR-205: human miRNA, SEQ ID No. 20 (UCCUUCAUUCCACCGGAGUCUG; expressed or natural sequence; listed as Homo sapiens)", "Category label": "class 1"}
{"Substance": "hsa-miR-29c: human miRNA, SEQ ID No. 32 (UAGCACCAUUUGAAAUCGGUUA; expressed or natural sequence; listed as Homo sapiens)", "Category label": "class 1"}
{"Substance": "hsa-miR-29a: human miRNA, SEQ ID No. 31 (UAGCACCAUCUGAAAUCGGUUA; expressed or natural sequence; listed as Homo sapiens)", "Category label": "class 1"}
{"Substance": "hsa-miR-193b: human miRNA, SEQ ID No. 14 (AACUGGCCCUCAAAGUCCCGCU; expressed or natural sequence; listed as Homo sapiens)", "Category label": "class 0"}
{"Substance": "hsa-miR-203: human miRNA, SEQ ID No. 19 (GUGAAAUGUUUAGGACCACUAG; expressed or natural sequence; listed as Homo sapiens)", "Category label": "class 1"}
{"Substance": "hsa-miR-378: human miRNA, SEQ ID No. 43 (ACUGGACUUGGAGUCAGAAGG; expressed or natural sequence; listed as Homo sapiens)", "Category label": "class 1"}
{"Substance": "hsa-miR-191: human miRNA, SEQ ID No. 13 (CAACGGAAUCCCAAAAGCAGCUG; expressed or natural sequence; listed as Homo sapiens)", "Category label": "class 1"}
{"Substance": "hsa-miR-574-3p: human miRNA, SEQ ID No. 48 (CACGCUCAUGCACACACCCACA; expressed or natural sequence; listed as Homo sapiens)", "Category label": "class 1"}
{"Substance": "hsa-miR-17: human miRNA, SEQ ID No. 11 (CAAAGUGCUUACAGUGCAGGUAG; expressed or natural sequence; listed as Homo sapiens)", "Category label": "class 1"}
{"Substance": "hsa-miR-92b: human miRNA, SEQ ID No. 49 (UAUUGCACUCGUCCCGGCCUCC; expressed or natural sequence; listed as Homo sapiens)", "Category label": "class 0"}
